Hello, the source for this data is patent US7018981B2, in case you need it.

I'd appreciate it if you could supply pIC50 values for the items below.
- assayTarget: motilin receptors (Oryctolagus cuniculus)
- Construct: A protein solution was prepared by homogenizing the duodenum isolated from a killed rabbit
- Sequence (G1T803 1-400): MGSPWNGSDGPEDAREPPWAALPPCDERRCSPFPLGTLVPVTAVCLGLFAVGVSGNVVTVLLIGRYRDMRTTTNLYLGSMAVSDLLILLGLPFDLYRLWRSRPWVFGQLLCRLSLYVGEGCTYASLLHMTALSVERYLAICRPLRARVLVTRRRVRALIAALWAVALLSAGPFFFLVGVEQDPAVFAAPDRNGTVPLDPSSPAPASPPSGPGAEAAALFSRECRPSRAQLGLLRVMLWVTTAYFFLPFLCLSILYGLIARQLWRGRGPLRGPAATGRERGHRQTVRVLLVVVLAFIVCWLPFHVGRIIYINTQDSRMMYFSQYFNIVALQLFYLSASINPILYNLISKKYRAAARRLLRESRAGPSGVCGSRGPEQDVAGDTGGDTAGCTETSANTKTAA
- assayNotes: Motilin receptor binding test (125I motilin, rabbit duodenum protein solution)
- measurementParameters: concentration inhibiting 50% of specific binding of 25 pM 125I motilin; rabbit duodenum homogenate, 2 hours at 25° C.
Where a SMILES comes first, the peptide text is derived from it. Bridges are numbered along the chain shown (N, C = ends). [ ]: non-standard residue; d: D form. NMeTyr(3-tBu) = CN[C@@H](Cc1ccc(O)c(C(C)(C)C)c1)C(=O)O; Tyr(3-tBu) = CC(C)(C)c1cc(C[CH](N)C(=O)O)ccc1O; Phe(4-F) = N[C@@H](Cc1ccc(F)cc1)C(=O)O; NMeK = CN[C@@H](CCCCN)C(=O)O; βAla = NCCC(=O)O
Just the number, please; pIC50 means minus log10 of the concentration in mol/L.

Qu. Please report the recorded pIC50 for CN(C(=O)[C@@H](N)Cc1ccc(F)cc1)[C@H]1CCCCNC(=O)CCNC(=O)[C@H](Cc2ccc(O)c(C(C)(C)C)c2)NC1=O [Example 1] (H-[Phe(4-F)][NMeK][Tyr(3-tBu)][βAla]; lactam 2-C) .
Ans. 8.92

Qu. Please report the recorded pIC50 for "CN1CCC[C@H](N(C)C(=O)[C@@H](N)Cc2ccc(F)cc2)C(=O)N[C@@H](Cc2ccc(O)c(C(C)(C)C)c2)C(=O)NCCCC1=O" .
Ans. 8.28

Qu. Please report the recorded pIC50 for CN(C(=O)[C@@H](N)Cc1ccc(F)cc1)[C@H]1CCCCNC(=O)CCNC(=O)[C@H](Cc2ccc(O)c(C(C)(C)C)c2)N(C)C1=O [Example 2] (H-[Phe(4-F)][NMeK][NMeTyr(3-tBu)][βAla]; lactam 2-C) .
Ans. 8.85

Qu. Please report the recorded pIC50 for CC(C)(C)c1cc(CC2NC(=O)C(NC(=O)C(N)Cc3ccccc3)CCCCNC(=O)CCNC2=O)ccc1O (stereo not shown) [Comparative example, reference compound] (H-FK[Tyr(3-tBu)][βAla]; lactam 2-C; configuration not given here) .
Ans. 8.00
